System: Aphis medicaginis
assay-overview: Insecticidal activity against Aphis medicaginis assessed as insect mortality at 10 mg/L measured after 72 hr post compound treatment
Assay type: functional
readout: mortality at 10 µg/mL

Solved entries (count: 5):
CCOC(=O)[C@H](CCSC)N1CN/C(=N\[N+](=O)[O-])N(Cc2cnc(Cl)s2)C1 : ≥ 50%
CCOC(=O)CCCN1CN/C(=N\[N+](=O)[O-])N(Cc2cnc(Cl)s2)C1 : ≥ 80%
CCOC(=O)CCN1CN/C(=N\[N+](=O)[O-])N(Cc2cnc(Cl)s2)C1 : ≥ 60%
CCOC(=O)CCCN1CN/C(=N\[N+](=O)[O-])N(Cc2ccc(Cl)nc2)C1 : ≥ 80%
CCOC(=O)C[C@@H](C(=O)OCC)N1CN/C(=N\[N+](=O)[O-])N(Cc2ccc(Cl)nc2)C1 : ≥ 60%

Consider the record given below.
Task: Which measured mortality at 10 µg/mL value corresponds to `CCOC(=O)[C@@H](c1ccc(Cl)cc1)N1CN/C(=N\[N+](=O)[O-])N(Cc2ccc(Cl)nc2)C1` ?
Output: ≥ 50%

----------
A collection of compounds and their measured mortality at 10 µg/mL
System: Aphis medicaginis
assay-overview: Insecticidal activity against Aphis medicaginis assessed as insect mortality at 10 mg/L measured after 72 hr post compound treatment
Format: functional

CCOC(=O)[C@H](C)N1CN/C(=N\[N+](=O)[O-])N(Cc2cnc(Cl)s2)C1 : ≥ 60%

Task: Which measured mortality at 10 µg/mL value corresponds to `CCOC(=O)[C@H](CC(C)C)N1CN/C(=N\[N+](=O)[O-])N(Cc2ccc(Cl)nc2)C1` ?
Output: ≥ 70%

----------
System: Aphis medicaginis
assay-overview: Insecticidal activity against Aphis medicaginis assessed as insect mortality at 100 mg/L measured after 72 hr post compound treatment
Assay type: functional
readout: mortality at 100 µg/mL

Solved entries (count: 5):
CCOC(=O)[C@H]([C@@H](C)CC)N1CN/C(=N\[N+](=O)[O-])N(Cc2ccc(Cl)nc2)C1 : ≥ 80%
CCOC(=O)[C@H](C)N1CN/C(=N\[N+](=O)[O-])N(Cc2cnc(Cl)s2)C1 : ≥ 60%
CCOC(=O)CCCN1CN/C(=N\[N+](=O)[O-])N(Cc2ccc(Cl)nc2)C1 : 100%
CCOC(=O)CC(CC(=O)OCC)N1CN/C(=N\[N+](=O)[O-])N(Cc2ccc(Cl)nc2)C1 : ≥ 70%
CN1COCN(Cc2cnc(Cl)s2)/C1=N\[N+](=O)[O-] : 100%

Task: Which measured mortality at 100 µg/mL value corresponds to `CCOC(=O)[C@@H](c1ccc(Cl)cc1)N1CN/C(=N\[N+](=O)[O-])N(Cc2cnc(Cl)s2)C1` ?
Output: 100%

Task: Consider next the compound `CCOC(=O)CCN1CN/C(=N\[N+](=O)[O-])N(Cc2cnc(Cl)s2)C1` in the same way.
Output: ≥ 70%

Task: Consider next the compound `CCOC(=O)C[C@@H](C(=O)OCC)N1CN/C(=N\[N+](=O)[O-])N(Cc2ccc(Cl)nc2)C1` in the same way.
Output: ≥ 70%

----------
System: Aphis medicaginis
assay-overview: Insecticidal activity against Aphis medicaginis assessed as insect mortality at 10 mg/L measured after 72 hr post compound treatment
Assay type: functional
readout: mortality at 10 µg/mL

Solved entries (count: 6):
CCOC(=O)[C@H](C(C)C)N1CN/C(=N\[N+](=O)[O-])N(Cc2ccc(Cl)nc2)C1 : ≥ 60%
CCOC(=O)[C@H](C)N1CN/C(=N\[N+](=O)[O-])N(Cc2ccc(Cl)nc2)C1 : ≥ 50%
CCOC(=O)C[C@@H](C(=O)OCC)N1CN/C(=N\[N+](=O)[O-])N(Cc2cnc(Cl)s2)C1 : ≥ 70%
CCOC(=O)[C@@H](c1ccc(Cl)cc1)N1CN/C(=N\[N+](=O)[O-])N(Cc2cnc(Cl)s2)C1 : ≥ 90%
CCOC(=O)CCN1CN/C(=N\[N+](=O)[O-])N(Cc2ccc(Cl)nc2)C1 : ≥ 70%
CCOC(=O)[C@H]([C@@H](C)CC)N1CN/C(=N\[N+](=O)[O-])N(Cc2cnc(Cl)s2)C1 : ≥ 50%

Task: Recorded mortality at 10 µg/mL for `CCOC(=O)[C@H](C(C)C)N1CN/C(=N\[N+](=O)[O-])N(Cc2cnc(Cl)s2)C1` with Aphis medicaginis, please?
Output: ≥ 50%

Task: Consider next the molecule `CCOC(=O)CC(CC(=O)OCC)N1CN/C(=N\[N+](=O)[O-])N(Cc2ccc(Cl)nc2)C1` in the same way.
Output: ≥ 60%

Task: Consider next the molecule `O=[N+]([O-])/N=C1\NCCN1Cc1ccc(Cl)nc1` in the same way.
Output: 100%

----------
Tested on: Aphis medicaginis
assay-overview: Insecticidal activity against Aphis medicaginis assessed as insect mortality at 500 mg/L measured after 72 hr post compound treatment
Format: functional
A collection of compounds and their measured mortality at 500 µg/mL

Solved entries (count: 5):
CCOC(=O)CCCN1CN/C(=N\[N+](=O)[O-])N(Cc2ccc(Cl)nc2)C1 : 100%
CCOC(=O)CCCN1CN/C(=N\[N+](=O)[O-])N(Cc2cnc(Cl)s2)C1 : 100%
CCOC(=O)[C@H](Cc1ccccc1)N1CN/C(=N\[N+](=O)[O-])N(Cc2ccc(Cl)nc2)C1 : ≥ 70%
CCOC(=O)[C@H](C(C)C)N1CN/C(=N\[N+](=O)[O-])N(Cc2cnc(Cl)s2)C1 : ≥ 80%
CCOC(=O)[C@H]([C@@H](C)CC)N1CN/C(=N\[N+](=O)[O-])N(Cc2ccc(Cl)nc2)C1 : ≥ 80%

Task: Recorded mortality at 500 µg/mL for `CN1COCN(Cc2cnc(Cl)s2)/C1=N\[N+](=O)[O-]` with Aphis medicaginis, please?
Output: 100%

Task: Consider next the compound `CCOC(=O)[C@H](CCSC)N1CN/C(=N\[N+](=O)[O-])N(Cc2cnc(Cl)s2)C1` in the same way.
Output: ≥ 90%

Task: Consider next the compound `CCOC(=O)[C@@H](c1ccc(Cl)cc1)N1CN/C(=N\[N+](=O)[O-])N(Cc2ccc(Cl)nc2)C1` in the same way.
Output: ≥ 70%

Task: Consider next the compound `O=[N+]([O-])/N=C1\NCCN1Cc1ccc(Cl)nc1` in the same way.
Output: 100%

Task: Consider next the compound `CCOC(=O)[C@H](Cc1ccccc1)N1CN/C(=N\[N+](=O)[O-])N(Cc2cnc(Cl)s2)C1` in the same way.
Output: ≥ 70%

Task: Consider next the compound `CCOC(=O)[C@H](C)N1CN/C(=N\[N+](=O)[O-])N(Cc2cnc(Cl)s2)C1` in the same way.
Output: ≥ 80%

Task: Consider next the compound `CCOC(=O)[C@H](C(C)C)N1CN/C(=N\[N+](=O)[O-])N(Cc2ccc(Cl)nc2)C1` in the same way.
Output: ≥ 80%

----------
A collection of molecules and their measured mortality at 500 µg/mL
Tested on: Aphis medicaginis
assay-overview: Insecticidal activity against Aphis medicaginis assessed as insect mortality at 500 mg/L measured after 72 hr post compound treatment
Format: functional
State the answer as a number, implicitly in %.

CCOC(=O)CCN1CN/C(=N\[N+](=O)[O-])N(Cc2ccc(Cl)nc2)C1 : 100

Task: Which measured mortality at 500 µg/mL value corresponds to `CCOC(=O)[C@@H](c1ccc(Cl)cc1)N1CN/C(=N\[N+](=O)[O-])N(Cc2cnc(Cl)s2)C1` ?
Output: 100

----------
Tested on: Aphis medicaginis
assay-overview: Insecticidal activity against Aphis medicaginis assessed as insect mortality at 10 mg/L measured after 72 hr post compound treatment
Format: functional
readout: mortality at 10 µg/mL

Solved entries (count: 6):
CCOC(=O)CN1CN/C(=N\[N+](=O)[O-])N(Cc2cnc(Cl)s2)C1 : ≥ 60%
CCOC(=O)CN1CN/C(=N\[N+](=O)[O-])N(Cc2ccc(Cl)nc2)C1 : ≥ 60%
CN1COCN(Cc2cnc(Cl)s2)/C1=N\[N+](=O)[O-] : 100%
CCOC(=O)[C@H](Cc1ccccc1)N1CN/C(=N\[N+](=O)[O-])N(Cc2ccc(Cl)nc2)C1 : ≥ 50%
CCOC(=O)CC(CC(=O)OCC)N1CN/C(=N\[N+](=O)[O-])N(Cc2cnc(Cl)s2)C1 : ≥ 60%
CCOC(=O)[C@H](CC(C)C)N1CN/C(=N\[N+](=O)[O-])N(Cc2cnc(Cl)s2)C1 : ≥ 80%

Consider the record given below.
Task: Which measured mortality at 10 µg/mL value corresponds to `CCOC(=O)[C@H]([C@@H](C)CC)N1CN/C(=N\[N+](=O)[O-])N(Cc2ccc(Cl)nc2)C1` ?
Output: ≥ 60%

----------
A collection of molecules and their measured mortality at 100 µg/mL
System: Aphis medicaginis
assay-overview: Insecticidal activity against Aphis medicaginis assessed as insect mortality at 100 mg/L measured after 72 hr post compound treatment
Assay type: functional

CCOC(=O)[C@H]([C@@H](C)CC)N1CN/C(=N\[N+](=O)[O-])N(Cc2cnc(Cl)s2)C1 : ≥ 60%
CCOC(=O)CN1CN/C(=N\[N+](=O)[O-])N(Cc2cnc(Cl)s2)C1 : ≥ 70%
CCOC(=O)[C@H](C(C)C)N1CN/C(=N\[N+](=O)[O-])N(Cc2ccc(Cl)nc2)C1 : ≥ 70%
CCOC(=O)[C@H](CCSC)N1CN/C(=N\[N+](=O)[O-])N(Cc2cnc(Cl)s2)C1 : ≥ 60%
CCOC(=O)CCN1CN/C(=N\[N+](=O)[O-])N(Cc2ccc(Cl)nc2)C1 : ≥ 80%

Task: Which measured mortality at 100 µg/mL value corresponds to `CCOC(=O)[C@H](CC(C)C)N1CN/C(=N\[N+](=O)[O-])N(Cc2ccc(Cl)nc2)C1` ?
Output: ≥ 80%

Task: Consider next the molecule `CCOC(=O)CCCN1CN/C(=N\[N+](=O)[O-])N(Cc2cnc(Cl)s2)C1` in the same way.
Output: 100%

Task: Consider next the molecule `CCOC(=O)[C@H](Cc1ccccc1)N1CN/C(=N\[N+](=O)[O-])N(Cc2cnc(Cl)s2)C1` in the same way.
Output: ≥ 60%
